# experimental-protocol: in vitro
# condition-description: rat, real gastrointestinal fluid or homogenate, pH 5.5
result-type: remaining at 2 h, 1 mg/mL

1) Ac-RPDPF-NH2 [Acetyl-Arg-Pro-Asp-Pro-Phe-NH2]
~100%
